Reference for the values: patent US11459315B2

Test system: H3K27me3 mark in HeLa cells (EZH2)
Test: H3K27me3 Alpha Hela Assay (AlphaLISA)
Format: cell-based
Settings: HeLa cells, 72 hrs; read-out: EZH2 Cell H3K27me3 Alpha HeLa (EC50 K27me3)
pEC50: −log10 of the molar value.
// reported pEC50 for each item listed

As a guide, the following entries are already answered.
molecule	testTarget	valueMeasured
CSc1cc(C)[nH]c(=O)c1CNC(=O)c1c(C)n([C@H](C)C2CCC(NC3(C(F)(F)F)COC3)CC2)c2ncncc12 (single isomer, unassigned) [164 (isomer 2)]	H3K27me3 mark in HeLa cells (EZH2)	7.00 to 8.00
COC1(C)CN(C2CCC([C@@H](C)n3c(C)c(C(=O)NCc4c(SC)cc(C)[nH]c4=O)c4ccccc43)CC2)C1 (single isomer, unassigned) [90 (isomer 2)]	H3K27me3 mark in HeLa cells (EZH2)	< 7.00
CSc1cc(C)[nH]c(=O)c1CNC(=O)c1c(C)n([C@H](C)C2OCC(NC3(C)COC3)CO2)c2ccccc12 (single isomer, unassigned) [6 (isomer 1)]	H3K27me3 mark in HeLa cells (EZH2)	> 8.00
CSc1cc(C)[nH]c(=O)c1CNC(=O)c1c(C)n([C@H](C)C2CCC(N3CC(C#N)C3)CC2)c2ccccc12 (single isomer, unassigned) [138 (isomer 2)]	H3K27me3 mark in HeLa cells (EZH2)	7.00 to 8.00

Then there is this molecule:
// pEC50 lookup, molecule = CSc1cc(C)[nH]c(=O)c1CNC(=O)c1c(C)n([C@H](C)C2CCC(OC(C)=O)CC2)c2ccccc12 (single isomer, unassigned) [134 (isomer 2)] , result: > 8.00

====

Target: PRC2 containing wt EZH2 (Homo sapiens (Human), UniProt Q15910)
Sequence (Q15910 whole entry): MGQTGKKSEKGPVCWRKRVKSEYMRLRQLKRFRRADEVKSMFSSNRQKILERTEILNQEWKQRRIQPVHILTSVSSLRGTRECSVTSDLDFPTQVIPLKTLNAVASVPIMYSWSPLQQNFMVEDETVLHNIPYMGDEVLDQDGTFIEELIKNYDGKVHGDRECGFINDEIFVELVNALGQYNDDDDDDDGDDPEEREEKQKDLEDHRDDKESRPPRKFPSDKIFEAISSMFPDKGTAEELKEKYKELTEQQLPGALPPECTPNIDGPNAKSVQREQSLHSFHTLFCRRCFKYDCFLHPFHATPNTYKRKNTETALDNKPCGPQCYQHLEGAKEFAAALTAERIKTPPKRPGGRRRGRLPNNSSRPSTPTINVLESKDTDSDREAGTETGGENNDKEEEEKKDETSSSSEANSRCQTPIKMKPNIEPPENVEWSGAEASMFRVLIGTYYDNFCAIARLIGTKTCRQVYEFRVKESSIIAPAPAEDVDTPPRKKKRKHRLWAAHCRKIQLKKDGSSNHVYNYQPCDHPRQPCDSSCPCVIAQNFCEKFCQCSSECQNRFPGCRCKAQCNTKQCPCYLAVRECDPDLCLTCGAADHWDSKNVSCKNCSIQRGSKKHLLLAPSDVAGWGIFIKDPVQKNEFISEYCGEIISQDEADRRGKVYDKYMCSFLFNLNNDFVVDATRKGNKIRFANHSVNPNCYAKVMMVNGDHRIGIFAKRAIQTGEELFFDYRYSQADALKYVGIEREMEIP
Sequence (O75530 whole entry partner): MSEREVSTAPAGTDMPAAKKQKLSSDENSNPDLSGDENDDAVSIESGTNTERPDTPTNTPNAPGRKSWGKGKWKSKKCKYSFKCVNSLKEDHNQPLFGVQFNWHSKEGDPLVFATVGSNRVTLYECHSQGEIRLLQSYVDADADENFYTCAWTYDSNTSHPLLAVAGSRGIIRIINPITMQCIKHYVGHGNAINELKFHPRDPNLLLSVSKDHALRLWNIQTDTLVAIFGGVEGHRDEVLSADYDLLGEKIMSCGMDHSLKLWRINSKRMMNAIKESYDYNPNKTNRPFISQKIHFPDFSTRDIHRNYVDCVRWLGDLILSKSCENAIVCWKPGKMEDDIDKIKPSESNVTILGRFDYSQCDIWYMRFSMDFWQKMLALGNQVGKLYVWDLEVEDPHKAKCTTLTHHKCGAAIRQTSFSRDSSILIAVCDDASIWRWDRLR
Sequence (Q15022 whole entry partner): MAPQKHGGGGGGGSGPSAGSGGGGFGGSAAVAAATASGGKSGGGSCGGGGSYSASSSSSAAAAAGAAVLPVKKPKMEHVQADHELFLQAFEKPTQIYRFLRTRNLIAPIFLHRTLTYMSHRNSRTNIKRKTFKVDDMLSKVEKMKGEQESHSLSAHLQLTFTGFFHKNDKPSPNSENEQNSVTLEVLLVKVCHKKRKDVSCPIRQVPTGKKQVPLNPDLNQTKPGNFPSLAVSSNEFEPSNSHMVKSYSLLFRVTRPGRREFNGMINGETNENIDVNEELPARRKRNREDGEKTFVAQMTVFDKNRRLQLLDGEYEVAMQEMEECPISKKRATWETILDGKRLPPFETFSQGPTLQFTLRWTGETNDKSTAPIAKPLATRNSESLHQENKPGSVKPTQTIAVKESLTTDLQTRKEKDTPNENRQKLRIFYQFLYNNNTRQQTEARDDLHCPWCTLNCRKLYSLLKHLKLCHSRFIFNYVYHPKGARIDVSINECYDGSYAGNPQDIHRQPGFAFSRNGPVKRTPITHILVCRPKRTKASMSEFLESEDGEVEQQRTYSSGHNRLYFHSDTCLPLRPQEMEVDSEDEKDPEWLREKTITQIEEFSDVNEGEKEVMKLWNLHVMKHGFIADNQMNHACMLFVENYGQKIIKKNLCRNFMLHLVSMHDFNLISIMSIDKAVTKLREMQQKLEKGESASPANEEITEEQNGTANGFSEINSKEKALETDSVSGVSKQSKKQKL
Sequence (Q09028 whole entry partner): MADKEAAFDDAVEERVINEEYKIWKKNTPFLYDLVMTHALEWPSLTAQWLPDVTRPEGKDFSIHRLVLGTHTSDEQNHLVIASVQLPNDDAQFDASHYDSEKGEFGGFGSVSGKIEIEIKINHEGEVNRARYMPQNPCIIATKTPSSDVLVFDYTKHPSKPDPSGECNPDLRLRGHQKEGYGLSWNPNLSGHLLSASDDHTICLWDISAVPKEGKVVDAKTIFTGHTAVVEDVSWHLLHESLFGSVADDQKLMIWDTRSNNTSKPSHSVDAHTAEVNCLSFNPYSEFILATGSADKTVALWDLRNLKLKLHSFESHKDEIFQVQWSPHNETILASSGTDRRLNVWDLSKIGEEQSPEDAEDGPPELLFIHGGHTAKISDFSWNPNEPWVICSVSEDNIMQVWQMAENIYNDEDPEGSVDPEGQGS
Sequence (Q6ZN18 whole entry partner): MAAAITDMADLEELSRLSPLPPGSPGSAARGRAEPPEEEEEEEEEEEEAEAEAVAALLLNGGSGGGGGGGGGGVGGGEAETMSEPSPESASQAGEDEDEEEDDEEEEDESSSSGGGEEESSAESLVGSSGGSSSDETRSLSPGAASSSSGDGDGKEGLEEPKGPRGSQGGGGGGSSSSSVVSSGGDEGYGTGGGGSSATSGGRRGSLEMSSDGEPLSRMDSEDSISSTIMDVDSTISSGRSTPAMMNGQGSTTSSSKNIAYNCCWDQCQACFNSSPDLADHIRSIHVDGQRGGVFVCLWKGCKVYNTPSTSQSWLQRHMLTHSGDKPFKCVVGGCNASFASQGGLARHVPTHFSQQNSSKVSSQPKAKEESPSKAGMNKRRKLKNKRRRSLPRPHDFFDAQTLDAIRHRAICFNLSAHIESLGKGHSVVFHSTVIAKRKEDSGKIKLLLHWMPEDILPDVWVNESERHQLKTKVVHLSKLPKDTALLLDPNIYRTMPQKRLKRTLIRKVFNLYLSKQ
Test: EZH2 residence time assay (100-fold dilution of pre-formed enzyme-inhibitor complex)
Type: biochemical
Settings: read-out: Residence Time
attributeMeasured: residence time

As a guide, the following entries are already answered.
molecule	valueMeasured
CCOC1CN(C2CCC([C@@H](C)n3c(C)c(C(=O)NCc4c(SC)cc(C)[nH]c4=O)c4cccnc43)CC2)C1 (single isomer, unassigned) [drawing 261]	300 to 2100 min
CSc1cc(C)[nH]c(=O)c1CNC(=O)c1c(C)n([C@H](C)C2CCC(N3CC(OC4CC4)C3)CC2)c2ncccc12 (stereo partly drawn)	300 to 2100 min
Cc1cc(C)c(CNC(=O)c2c(C)n([C@H](C)C34CC(NC5COC5)(C3)C4)c3ccccc23)c(=O)[nH]1	< 30 min
Cc1cc(Cl)c(CNC(=O)c2c(C)n([C@H](C)C3OCC(N(C)C)CO3)c3ccccc23)c(=O)[nH]1 (single isomer, unassigned) [drawing 229]	< 30 min
CSc1cc(C)[nH]c(=O)c1CNC(=O)c1c(C)n([C@H](C)C2CCC(N3CC(OC(F)F)C3)CC2)c2ncccc12 (single isomer, unassigned)	300 to 2100 min

// residence time lookup, molecule = Cc1cc(C)c(CNC(=O)c2c(C)n([C@H](C)C34CC(N(C)CC(F)(F)F)(C3)C4)c3ccccc23)c(=O)[nH]1 , result: < 30 min

====

Target: PRC2 containing wt EZH2 (Homo sapiens (Human))
Assay: EZH2 biochemical assay (IC50), 3H-SAM incorporation into biotinylated H3 peptide
Conditions: EZH2 (IC50), 30 pM PRC2 containing wt EZH2; 3-5 h pre-incubation
pIC50: −log10 of the molar value.
attributeMeasured: pIC50

As a guide, the following entries are already answered.
compound	pIC50
CSc1cc(C)[nH]c(=O)c1CNC(=O)c1c(C)n([C@H](C)C2CCN(C3CC3)CC2)c2cc(F)ccc12	> 9.30
CSc1cc(C)[nH]c(=O)c1CNC(=O)c1c(C)n([C@H](C)C2CCC(O)CC2)c2cc(F)ccc12 (single isomer, unassigned) [44 (isomer 1)]	> 9.30

Then there is this compound:
// pIC50 lookup, compound = COC1CC(N2CCC([C@@H](C)n3c(C)c(C(=O)NCc4c(SC)cc(C)[nH]c4=O)c4cccnc43)CC2)C1 (stereo partly drawn) , result: > 9.30
